Source listed as patent US20240246952A1.

Form field: pEC50 (one value per entry).
biological target: GCase (Homo sapiens, UniProt P04062); construct: endogenous in cells; experiment: activation of GCase in a live cell PFB assay in HELA cells
Sequence (P04062 40-536): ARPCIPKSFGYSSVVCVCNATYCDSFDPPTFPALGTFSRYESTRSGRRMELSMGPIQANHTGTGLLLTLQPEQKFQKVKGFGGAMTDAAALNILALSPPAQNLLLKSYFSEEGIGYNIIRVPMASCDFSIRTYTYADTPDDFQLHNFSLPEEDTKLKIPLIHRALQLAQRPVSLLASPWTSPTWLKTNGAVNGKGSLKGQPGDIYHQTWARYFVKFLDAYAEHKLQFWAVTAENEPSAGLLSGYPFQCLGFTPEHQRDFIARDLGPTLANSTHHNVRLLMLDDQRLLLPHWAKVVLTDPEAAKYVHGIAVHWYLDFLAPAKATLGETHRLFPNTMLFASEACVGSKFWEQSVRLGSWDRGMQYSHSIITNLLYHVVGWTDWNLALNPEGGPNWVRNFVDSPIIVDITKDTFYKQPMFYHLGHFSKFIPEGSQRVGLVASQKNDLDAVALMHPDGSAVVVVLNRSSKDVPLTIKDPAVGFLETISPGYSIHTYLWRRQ
pEC50: −log10 of the molar value.

# COMPOUND, pEC50
records = [
    ("O=C(c1ccc2ccn(C3COC3)c2c1)N1CCCC(F)(c2nnc(-c3cccc(C(F)(F)F)n3)s2)C1 (centres unmarked) [Compound 26]", "4.30 to 5.00"),
    ("FC(F)Cn1ncc2ncc(N3C[C@@H]4[C@H](C3)[C@H]4c3nnc(-c4cccnc4C(F)(F)F)s3)nc21 [Compound 23]", "< 4.00"),
    ("FC(F)Cn1ncc2ncc(N3C[C@@H]4[C@H](C3)[C@H]4c3nnc(-c4ccccc4)s3)nc21 [Compound 28]", "4.30 to 5.00"),
    ("COc1ncncc1-c1nnc(C2CCCN(c3cnc4ccccc4n3)C2)s1 (centres unmarked) [Compound 18]", "4.30 to 5.00"),
    ("O=C(c1ccc2cc[nH]c2c1)N1CCCC(c2nnc(-c3ccccc3C(F)(F)F)s2)C1 (centres unmarked) [Compound 9]", "4.30 to 5.00"),
    ("O=C(c1ccc2ccn(CC3COC3)c2c1)N1CCCC(F)(c2nnc(-c3cccc(C(F)(F)F)n3)s2)C1 (centres unmarked) [Compound 25]", "4.30 to 5.00"),
    ("FC(F)(F)c1cccc(-c2nnc(C3(F)CCCN(c4cnc5cnn(CC6COC6)c5n4)C3)s2)n1 (centres unmarked) [Compound 27]", "> 5.00"),
    ("CCn1ncc2ncc(N3CCCC(c4nnc(-c5ccccc5)s4)C3)nc21 (centres unmarked) [Compound 15]", "4.00 to 4.30"),
]
